Target: recombinant human IL-13 (human, UniProt P35225 35-146)
Sequence (P35225 35-146 limits assumed): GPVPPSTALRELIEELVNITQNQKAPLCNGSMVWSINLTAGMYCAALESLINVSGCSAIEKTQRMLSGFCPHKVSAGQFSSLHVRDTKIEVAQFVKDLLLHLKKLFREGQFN
Assay: cell-based or functional assay
Reported property: HEK-IL-13 [nM] (IC50, STAT6 reporter) (nM)
Give just the numeric value; nM need not be written.

Task: Look up HEK-IL-13 [nM] (IC50, STAT6 reporter): BDG38.083 (antibody, V domains shown, IgG1) VH: QMQLVESGGGVVQPGRSLTLSCAASGFEFRTYGMHWVRQAPGKGLEWVGVIWDDGSNTHYADSVKGRFTITRDNSKNTLNLQMNSLRAEDTAVYYCARAPQWYLTAEAFDLWGQGTMVTVSS VL: SYILTQPPSVSVAPGQTATITCGGNLIGAKLVHWYQQKPGQAPVLVIYDDSDRPSRIPERFSGSNIGNTATLTISDVEEGDEADYYCQVWDYSSDTMVFGGGTKLTVL
Result: 0.0419
